- system: HIV-2 protease (Human immunodeficiency virus type 2 subtype A, UniProt P04584)
- Construct: the coding region of the 99-amino acid protease; made in house; host or cells: Saccharomyces cerevisiae strain AB110, plasmid pHIV2PR115
- Sequence (P04584 514-612 limits assumed): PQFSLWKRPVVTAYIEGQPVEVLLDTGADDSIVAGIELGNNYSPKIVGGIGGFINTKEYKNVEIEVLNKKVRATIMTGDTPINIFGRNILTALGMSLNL
- assay-comment: biochemical
quantity-kind: pIC50
One number for each entry, as −log10 of the molar value.

What value of measured pIC50 is listed for OC(CCCN1CCC(O)(c2ccc(Cl)cc2)CC1)c1ccc(F)cc1 (stereo not shown) [UCSF2] ?
3.15

====

- assay-comment: in vitro
Answer each item with its documented CC50 at 6 h.
Numbers only, in µM.

Example results:
OC(CC#CC1(O)CCN(Cc2ccccc2)CC1)c1ccccc1 (centres unmarked) [UCSF72]
260
OC(CC=CC1(O)CCN(Cc2ccccc2)CC1)c1ccccc1 (centres unmarked) [UCSF76]
440
C=C(CCCC1(O)CCC(O)(c2ccc(Cl)cc2)CC1)c1ccccc1 (centres unmarked) [UCSF41]
90

Now let's try a different one.
Which measured CC50 at 6 h value corresponds to OC1(c2ccc(Cl)cc2)CCN(CCCC(O)(Cc2ccccc2)c2ccc(F)cc2)CC1 (centres unmarked) [UCSF25] ?
20

====

- system: HIV-1 protease (Human immunodeficiency virus type 1 group M subtype B, UniProt P03369)
- assay-comment: biochemical
- condition-summary: HIV-1 Protease IC50 (μM) 1M NaCl
Mark met only for IC50 values smaller than 80 µM; exact matches and larger values are not met.

OC1(c2ccc(Cl)cc2)CCN(CCCNCc2ccccc2)CC1
not met

is_below(IC50, 80 µM) for O=C(C#CCN1CCC(O)(c2ccc(Cl)cc2)CC1)c1ccccc1 ?
met

# TODO verify IC50 < 80 µM strictly for this compound: C[C@@H]1SC(CCCN2CCC(O)(c3ccc(Cl)cc3)CC2)(c2ccc(F)cc2)S[C@H]1C (relative stereo)
not met

Could you please tell me whether IC50 recorded for C#CCC(CCN1CCC(O)(c2ccc(Cl)cc2)CC1)C(=O)c1ccc(F)cc1 (stereo not drawn) is less than 80 µM?
not met

Consider OC1(c2ccc(Cl)cc2)CCN(CCCC(O)(c2ccccc2)c2ccc(F)cc2)CC1 (stereo not drawn) . Does its IC50 lie strictly below 80 µM?
met

Hello, is IC50 of the following compound strictly smaller than 80 µM? O=C(/C=C/C[N+]1([O-])CCC(O)(c2ccc(Cl)cc2)CC1)c1ccc(F)cc1 (stereo not drawn)
met

====

- system: HIV-1 protease (Human immunodeficiency virus type 1 group M subtype B, UniProt P03369)
- assay-comment: biochemical
- condition-summary: 1.0M NaCl; read-out: IC50
quantity-kind: pIC50
One number for each entry, as −log10 of the molar value.

Value lookup for pIC50; key = OC1(CCCCc2ccccc2)CCC(O)(c2ccccc2)CC1 (stereo not shown)
3.89

====

- assay-comment: physchem
For each record, write down the corresponding solubility.

O=C(CCC[N+]1([O-])CCC(O)(c2ccc(Cl)cc2)CC1)c1cccc(-c2ccccc2)c1 (stereo not drawn)
> 25 µM
OC1(c2ccc(Cl)cc2)CCN(CCCC(O)(c2ccccc2)c2ccc(F)cc2)CC1 (stereo not drawn)
> 200 µM
OC1(c2ccc(Cl)cc2)CCN(CCCC2(c3ccc(F)cc3)SCCCS2)CC1
< 100 µM
OCCNN=C(CCCN1CCC(O)(c2ccc(Cl)cc2)CC1)c1ccc(F)cc1
500 µM
O=C(CCCN1CCC(O)(c2ccc(Cl)cc2)CC1)c1ccc(-c2ccccc2)cc1
< 50 µM

For each of the molecules below, state solubility.
1. C[C@@H]1SC(CCCN2CCC(O)(c3ccc(Cl)cc3)CC2)(c2ccc(F)cc2)S[C@@H]1C (relative stereo)
2. OC1(c2ccc(Cl)cc2)CCN(CCCC2(c3ccccc3)OCCO2)CC1
3. OC(CCCN1CCC(O)(c2ccc(Cl)cc2)CC1)c1ccc(F)cc1 (stereo not drawn)
4. O=C(CCCN1CC=C(c2ccc(Cl)cc2)CC1)c1ccc(F)cc1
5. OC1(c2ccc(Cl)cc2)CCN(CCCNCc2ccccc2)CC1

1: < 50 µM; 2: < 50 µM; 3: > 250 µM; 4: < 250 µM; 5: > 500 µM

# map each molecule to its solubility
1. OC1(c2ccc(Cl)cc2)CCN(CCCC2(c3cccc(-c4ccccc4)c3)SCCS2)CC1
2. OC1(c2ccc(Cl)cc2)CCN(CCCC2(c3ccc(F)cc3)SCc3ccc(cc3)CS2)CC1
3. OC1(c2ccccc2)CCN(CCCC2(c3ccc(F)cc3)OCCO2)CC1

["< 500 µM", "< 50 µM", "> 500 µM"]

Working through the 5 molecules below one at a time, give solubility for each.
1. OC1(c2ccc(Cl)cc2)CCN(CCC[Si](c2ccccc2)(c2ccccc2)c2ccccc2)CC1
2. CC(=O)OC1(c2ccc(Cl)cc2)CCN(CCCC(=O)c2ccc(F)cc2)CC1
3. C=CC(O)(CCCN1CCC(O)(c2ccc(Cl)cc2)CC1)c1ccc(F)cc1 (stereo not drawn)
4. O=C(CCC[N+]1([O-])CCC(O)(c2ccc(Cl)cc2)CC1)c1ccc(F)cc1 (stereo not drawn)
5. Cc1ccc(C(=O)CC(CN2CCC(O)(c3ccc(Cl)cc3)CC2)c2ccccc2)cc1 (stereo not drawn)

1: > 500 µM; 2: > 250 µM; 3: < 100 µM; 4: < 250 µM; 5: > 500 µM
